Origin of measurements: patent US7781454B2

Reported pIC50 values for a set of compounds
# Target Or System: HIV-1 RT enzyme (wild-type) (Human immunodeficiency virus type 1 group M subtype B, UniProt P04585)
Structures can show the parent of a compound that is named as a salt.
In simple prose, pIC50 is minus the logarithm base ten of a concentration in moles per litre.

Please review the following examples before continuing.
- Compound: "N#Cc1cc(Cl)cc(Oc2c(Cl)ccc3c2nnn3CC(=O)Nc2ccccc2Cl)c1 [Example 12]"
  Reading: 9.35
- Compound: "Cc1ccn2c(Cc3n[nH]c4ncccc34)ncc2c1Oc1cc(Cl)cc(C#N)c1 [Example 25, trifluoroacetate]"
  Reading: 7.70
- Compound: "N#Cc1cc(Cl)cc(Oc2c(Cl)ccc3c2nnn3Cc2n[nH]c3nc(N)ccc23)c1 [Example 6]"
  Reading: 9.40

Q. // pIC50 lookup, key: CN(Cc1ccccc1Cl)C(=O)Cn1nnc2c(Oc3cc(Cl)cc(C#N)c3)c(Cl)ccc21 [Example 9]
A. 7.21

Q. Look at this compound and give its reported pIC50. N#Cc1cc(Cl)cc(Oc2c(Cl)ccc3nn(Cc4n[nH]c5ncccc45)nc23)c1Cl [Example 20]
A. 8.68

Q. What measured pIC50 goes with N#Cc1cc(Cl)cc(Oc2c(Cl)ccc3c2nnn3Cc2nnc(-c3ccccc3)o2)c1 [Example 23] ?
A. 8.21

Q. # pIC50 lookup, item N#Cc1cc(Cl)cc(Oc2c(Cl)ccc3c2ncn3Cc2n[nH]c3ncccc23)c1 [Example 7, dihydrochloride]
A. 9.04

Q. // returns reported pIC50 for input N#Cc1cc(Cl)cc(Oc2c(Cl)ccc3c2nnn3CCO)c1 [Example 28]
A. 7.17

Q. What value of measured pIC50 is listed for N#Cc1cc(C#N)cc(Oc2c(Cl)ccc3c2nnn3Cc2n[nH]c3ncccc23)c1 [Example 29] ?
A. 9.05

Q. Could you tell me which pIC50 is on file for N#Cc1cc(Cl)cc(Oc2c(Cl)ccc3c2cnn3Cc2n[nH]c3ncccc23)c1 [Example 1] ?
A. 9.46

Q. Reported pIC50, compound N#Cc1cc(Cl)cc(Oc2c(Cl)ccc3c2nnn3CC(=O)OCc2ccccc2)c1 [Example 15] : ____
A. 8.62

Q. Reported pIC50 for N#Cc1cc(Cl)cc(Oc2c(Cl)ccc3c2nnn3Cc2n[nH]c3ncccc23)c1 [Example 4] : what is it?
A. 9.62

Q. Which measured pIC50 value corresponds to NCc1cc(Cl)cc(Oc2c(Cl)ccc3c2nnn3Cc2n[nH]c3ncccc23)c1 [Example 17, trifluoroacetate] ?
A. 7.42

Q. Consider the compound shown here: N#Cc1cc(Cl)cc(Oc2c(Cl)ccc3c2c(Cl)nn3Cc2n[nH]c3ncccc23)c1 [Example 2] What is its recorded pIC50?
A. 8.41

Q. Which pIC50 is listed for O=Cc1cc(Cl)cc(Oc2c(Cl)ccc3c2nnn3Cc2n[nH]c3ncccc23)c1 [Example 18] ?
A. 8.68

Q. Fill in the blank: the reported pIC50 of N#Cc1cc(Cl)cc(Oc2c(Cl)ccc3c2nnn3CC(=O)Nc2ccncc2C(F)(F)F)c1 [Example 13] is ____.
A. 9.00

Q. What pIC50 value was documented for this compound, N#Cc1cc(Cl)cc(Oc2c(Cl)ccc3c2nnn3Cc2n[nH]c3nc(N)ccc23)c1Cl [Example 22] ?
A. 9.28

Q. pIC50 for N#Cc1cc(Cl)cc(Oc2c(Cl)ccc3c2CCCN3Cc2n[nH]c3ncccc23)c1 [Example 27] ?
A. 6.80
